Assay: Pharmacokinetic studies of certain compounds in female Balb/c mice (Example 5)
Format: in vivo
Details: female, BALB/c, mouse, plasma, po, 30 mg/kg, I-2 PO 30 mg/kg, 0.5 hr, read-out: Plasma concentration Individual
MEASURED_QUANTITY: concentration at 0.5 hr (ng/mL)
Give just the numeric value; ng/mL need not be written.

concentration at 0.5 hr for CC(C)Cc1sc(Nc2ncc(-c3cccs3)cc2C(=O)O)nc1C1=CCCCC1 ?
1160

====

Assay: Pharmacokinetic studies of certain compounds in female Balb/c mice (Example 5)
Format: in vivo
Conditions: mouse, plasma, I-3 IV 1 mg/kg
MEASURED_QUANTITY: C0 (ng/mL)
Numbers only here, please. The scale is ng/mL.

For the compound CC(C)Cc1sc(Nc2ncc(-c3cccs3)cc2C(=O)O)nc1C1CCCCC1 , what C0 is on record?
4100

====

Test: Pharmacokinetic studies of certain compounds in female Balb/c mice (Example 5)
Assay type: in vivo
Details: female, Balb/c, mouse, plasma, po, 30 mg/kg, I-1 PO 30 mg/kg, 4 hr, read-out: Plasma concentration Mean
MEASURED_QUANTITY: concentration at 4 hr (ng/mL)
Numbers only here, please. The scale is ng/mL.

Fill in the blank: the reported concentration at 4 hr of CC(C)Cc1sc(Nc2ncc(-c3cccs3)cc2C(=O)O)nc1C1=CCOCC1 [Compound I-1] is ____.
159

====

Assay: Pharmacokinetic studies of certain compounds in female Balb/c mice (Example 5)
Assay type: in vivo
Conditions: female, Balb/c, mouse, plasma, po, 30 mg/kg, I-27 PO 30 mg/kg, 0.083 hr, read-out: Plasma concentration Individual
MEASURED_QUANTITY: concentration at 0.083 h (ng/mL)
The reply should be a number in ng/mL, with the unit left off.

Suppose we examine the compound CC(C)Cc1sc(Nc2ncc(-c3cccs3)cc2C(=O)O)nc1C1(C)CCCCC1 [Compound I-27] ; what concentration at 0.083 h value has been reported?
40.5

====

Experiment: Pharmacokinetic studies of certain compounds in female Balb/c mice (Example 5)
Format: in vivo
Settings: female, Balb/c, mouse, plasma, iv, 1 mg/kg, I-8 IV 1 mg/kg, 1 hr, read-out: Plasma concentration Individual
MEASURED_QUANTITY: concentration at 1 hr (ng/mL)
# number only, unit ng/mL dropped from output

Fill in the blank: the reported concentration at 1 hr of CC(C)Cc1sc(Nc2ncc(-c3cccs3)cc2C(=O)O)nc1C1=CCCC1 is ____.
85.2

====

Test: Pharmacokinetic studies of certain compounds in female Balb/c mice (Example 5)
Type: in vivo
Conditions: mouse, plasma, I-1 PO 30 mg/kg
MEASURED_QUANTITY: half-life (h)
Report the figure in h without appending any unit label.

Fill in: half-life of CC(C)Cc1sc(Nc2ncc(-c3cccs3)cc2C(=O)O)nc1C1=CCOCC1 [Compound I-1] is ___
1.81

====

Assay: Pharmacokinetic studies of certain compounds in female Balb/c mice (Example 5)
Type: in vivo
Details: female, Balb/c, mouse, plasma, po, 50 mg/kg, I-8 PO 50 mg/kg, 1 hr, read-out: Plasma concentration Mean
MEASURED_QUANTITY: concentration at 1 h (ng/mL)
Give the number; ng/mL is assumed, so skip it.

# lookup: concentration at 1 h of CC(C)Cc1sc(Nc2ncc(-c3cccs3)cc2C(=O)O)nc1C1=CCCC1
2560
